Answer each item with its documented IC50.
- measurement.target: human HIF-PHD3 (Homo sapiens, UniProt Q9H6Z9)
- Construct: purchased CrystalGenomics Ltd
- Sequence (Q9H6Z9 whole entry): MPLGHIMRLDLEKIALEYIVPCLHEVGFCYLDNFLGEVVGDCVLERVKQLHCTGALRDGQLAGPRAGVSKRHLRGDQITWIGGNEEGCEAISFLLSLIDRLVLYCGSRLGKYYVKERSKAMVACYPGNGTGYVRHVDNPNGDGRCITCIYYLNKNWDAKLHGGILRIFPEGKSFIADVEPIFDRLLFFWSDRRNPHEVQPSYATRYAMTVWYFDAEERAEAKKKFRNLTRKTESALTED
- method.description: HIF-PHD inhibition assay (fluorescence polarization), human HIF-PHD3
- Type: biochemical
- measurement.conditions: 2-oxoglutaric acid 166 μmol/L
Numeric only. Scale: nM

q: Please list IC50 recorded for the molecule "CC(C)(CCn1ncc2nc(-n3cc(C(=O)O)cn3)nc(O)c21)c1ccc2ccccc2c1"
a: 400

q: Consider the molecule "O=C(O)c1cnn(-c2nc(O)c3c(cnn3Cc3ccc(N4CCC(C(F)(F)F)CC4)cc3)n2)c1" . State its measured IC50.
a: 420

q: Look up and state reported IC50 for "O=C(O)c1cnn(-c2nc(O)c3c(cnn3CCCOc3ccc(Cl)c4c3CCC4)n2)c1"
a: 53

q: In one line, give reported IC50 of the entry Cc1ccc(Cl)cc1C(C)n1ncc2nc(-n3cc(C(=O)O)cn3)nc(O)c21 (centres unmarked) [Example 311] .
a: 770

q: Supply measured IC50 of "Cc1cc(Cl)ccc1-c1ccc(Cn2ncc3nc(-n4cc(C(=O)O)cn4)nc(O)c32)cc1" in your reply.
a: 110

q: Answer with the recorded IC50 for the molecule listed here: CC1CCCC(n2ncc3nc(-n4cc(C(=O)O)cn4)nc(O)c32)C1 (centres unmarked) [Example 398]
a: 1400

q: Give IC50 for "O=C(O)c1cnn(-c2nc(O)c3c(cnn3Cc3ccc(-c4cccc(Cl)c4Cl)cc3)n2)c1"
a: 120

q: Annotate the molecule "CC[C@H]1CC[C@H](Cn2ncc3nc(-n4cc(C(=O)O)cn4)nc(O)c32)CC1" with its measured IC50.
a: 830

====

Could you please report measured pIC50 for the items listed next?
- measurement.target: human HIF-PHD2 (Homo sapiens, UniProt Q9GZT9)
- Sequence (Q9GZT9 2-426 limits assumed): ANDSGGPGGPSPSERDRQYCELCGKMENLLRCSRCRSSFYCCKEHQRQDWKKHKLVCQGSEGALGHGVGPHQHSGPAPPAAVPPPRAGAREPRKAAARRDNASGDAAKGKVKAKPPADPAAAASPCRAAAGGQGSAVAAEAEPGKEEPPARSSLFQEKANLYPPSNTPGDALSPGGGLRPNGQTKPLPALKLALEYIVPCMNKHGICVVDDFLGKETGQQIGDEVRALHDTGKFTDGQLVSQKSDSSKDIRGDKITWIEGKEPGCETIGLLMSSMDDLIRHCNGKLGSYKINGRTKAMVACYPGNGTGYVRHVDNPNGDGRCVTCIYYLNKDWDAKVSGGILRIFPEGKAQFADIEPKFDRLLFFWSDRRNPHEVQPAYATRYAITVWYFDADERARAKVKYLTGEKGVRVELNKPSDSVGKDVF
Expect pIC50 as a plain number equal to -log10 of the molar concentration.

q: Answer with the recorded pIC50 for the compound listed here: "Cc1cccc(C)c1-c1ccc(Cn2ncc3nc(-n4cc(C(=O)O)cn4)nc(O)c32)cc1"
a: 7.64

q: Give reported pIC50 value for "C[C@@H](c1ccc(F)cc1)n1ncc2nc(-n3cc(C(=O)O)cn3)nc(O)c21"
a: 7.46

q: Entry "O=C(O)c1cnn(-c2nc(O)c3c(cnn3Cc3ccc4c(c3)CCCC4)n2)c1" needs its pIC50 filled in; supply it.
a: 7.82

q: Answer with reported pIC50 of "C[C@@H](c1cc(F)ccc1F)n1ncc2nc(-n3cc(C(=O)O)cn3)nc(O)c21"
a: 7.14

q: Please report the measured pIC50 for "CCCC(C)(C)Cn1ncc2nc(-n3cc(C(=O)O)cn3)nc(O)c21"
a: 7.07

q: Provide measured pIC50 value, entry: "CC(C)(Cn1ncc2nc(-n3cc(C(=O)O)cn3)nc(O)c21)Oc1cccc2ccccc12"
a: 7.59

q: For "COc1ccc(-c2cccc(Cn3ncc4nc(-n5cc(C(=O)O)cn5)nc(O)c43)c2)cc1" , write its pIC50.
a: 7.85

q: For the compound "C[C@@H](c1cccc(-c2ccccc2)c1)n1ncc2nc(-n3cc(C(=O)O)cn3)nc(O)c21" , give its measured pIC50 value.
a: 7.74

q: For "C[C@@H](c1ccc(F)cc1F)n1ncc2nc(-n3cc(C(=O)O)cn3)nc(O)c21" , write its pIC50.
a: 7.19

q: Complete the entry with pIC50 for Cc1ccc(C(C2CC2)n2ncc3nc(-n4cc(C(=O)O)cn4)nc(O)c32)cc1 (single isomer, unassigned)
a: 7.46

q: Input "O=C(O)c1cnn(-c2nc(O)c3c(cnn3C[C@H]3CC[C@@H](Oc4ccccc4F)CC3)n2)c1" , output reported pIC50.
a: 8.28
